- Tested on: Staphylococcus aureus
- experimental.protocol: In vitro antibacterial activity against Staphylococcus aureus 01A0758
- Assay type: functional
observed.property: MIC (µg/mL)

CC[C@H]1OC(=O)[C@H](C)[C@H]2OC3(CCN(c4nc(C)ccc4C#N)CC3)O[C@](C)(C[C@@H](C)CN[C@H](C)[C@@H](O)[C@]1(C)O)[C@H](O[C@@H]1O[C@H](C)CC(N(C)C)[C@H]1O)[C@H]2C (stereo partly specified) | 0.78
CC[C@H]1OC(=O)[C@H](C)[C@H]2OC3(CCN(c4nc5ccccc5o4)CC3)O[C@](C)(C[C@@H](C)CN(C)[C@H](C)[C@@H](O)[C@]1(C)O)[C@H](O[C@@H]1O[C@H](C)CC(N(C)C)[C@H]1O)[C@H]2C (stereo partly specified) | 3.13
CC[C@H]1OC(=O)[C@H](C)[C@H]2OC3(CCN(c4nccs4)CC3)O[C@](C)(C[C@@H](C)CN(C)[C@H](C)[C@@H](O)[C@]1(C)O)[C@H](O[C@@H]1O[C@H](C)CC(N(C)C)[C@H]1O)[C@H]2C (stereo partly specified) | 3.13
CC[C@H]1OC(=O)[C@H](C)[C@H]2OC3(CCN(c4ccc([N+](=O)[O-])c(N)n4)CC3)O[C@](C)(C[C@@H](C)CN[C@H](C)[C@@H](O)[C@]1(C)O)[C@H](O[C@@H]1O[C@H](C)CC(N(C)C)[C@H]1O)[C@H]2C (stereo partly specified) | 1.56
CCOC(=O)c1ccc(N2CCC3(CC2)O[C@H]2[C@H](C)[C@@H](O[C@@H]4O[C@H](C)CC(N(C)C)[C@H]4O)[C@@](C)(C[C@@H](C)CN[C@H](C)[C@@H](O)[C@](C)(O)[C@@H](CC)OC(=O)[C@@H]2C)O3)nc1 (stereo partly specified) | 6.25
CC[C@H]1OC(=O)[C@H](C)[C@H]2OC3(CCN(c4ncccc4[N+](=O)[O-])CC3)O[C@](C)(C[C@@H](C)CN[C@H](C)[C@@H](O)[C@]1(C)O)[C@H](O[C@@H]1O[C@H](C)CC(N(C)C)[C@H]1O)[C@H]2C (stereo partly specified) | 0.78

* * *

- Test system: Staphylococcus aureus
- experimental.protocol: In vitro antibacterial activity against Staphylococcus aureus 01A0758
- Type: functional
observed.property: MIC (µg/mL)

CC[C@H]1OC(=O)[C@H](C)[C@H]2OC3(CCN(c4ccc(C#N)cn4)CC3)O[C@](C)(C[C@@H](C)CN[C@H](C)[C@@H](O)[C@]1(C)O)[C@H](O[C@@H]1O[C@H](C)CC(N(C)C)[C@H]1O)[C@H]2C (some centres not stated) | 1.56
CC[C@H]1OC(=O)[C@H](C)[C@H]2OC3(CCN(c4ccc(C(=O)OCc5ccccc5)c(C(F)(F)F)c4)CC3)O[C@](C)(C[C@@H](C)CN(C)[C@H](C)[C@@H](O)[C@]1(C)O)[C@H](O[C@@H]1O[C@H](C)CC(N(C)C)[C@H]1O)[C@H]2C (some centres not stated) | 0.78
